# testedSystem: T1, purified recombinant MHC II protein, allele DRB1*0401 (human)
# T1 construct: bought from Benaroya Research Institute; also called DR4; MHC-II DR molecule
# protocolSummary: MHC II competition binding assay
Recorded IC50, one value per entry.
Use µM as the unit, but write only the number.

A selection of reference data follows.
# binder, valueUnit, IC50
records = [
    ("DYVKAGQQIGWSGSTGY (synthetic mutated peptide of the lysostaphin catalytic domain; also called I99Q) [cluster 4 peptide with Ile99Gln]", "µM", 6.16),
    ("DYVEAGQQIGWSGSTGY (synthetic mutated peptide of the lysostaphin catalytic domain; also called 95-99) [cluster 4 peptide with Lys95Glu/Ile99Gln]", "µM", 25.8),
]

// returns reported IC50 for input DHVEAGQIIGWSGSTGY (synthetic mutated peptide of the lysostaphin catalytic domain; also called 93_95) [cluster 4 peptide with Tyr93His/Lys95Glu] 25.5

These data points were gathered from patent US20210395713A1.
